Every entry's value here was drawn from the supplement of paper PMC10567573.

B1: SAT2 (parent)
chain: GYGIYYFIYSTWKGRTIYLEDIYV

# Variants of: B1
# assaySummary: protein stability index of a GFP-peptide fusion (GPS, HEK-293T) (PSI 1-6); higher = more stable;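 further: lentivirally expressed fusions sorted by FACS into six bins by GFP to DsRed ratio, PSI derived from sequencing read proportions per bin multiplied by bin number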
# testParameters: c terminus: a fixed tail appended
Here the recorded protein stability index is given for each entry.

seqString	protein stability index
GYGIYYFILSTWKGRTIYLEDIYV [Y9L]	2.57
GSGIYYFIYSTWKGRTIYLEDIYV [Y2S]	3.01
GYGIYYFIYSTWKGRTIYLRDIYV [E20R]	3.97
GYGIYYFIYSTWKGRTIYLEDIYE [V24E]	2.6
GYGIYYFIYSTWKGRTIYLEAIYV [D21A]	2.28
GFGIYYFIYSTWKGRTIYLEDIYV [Y2F]	1.06
GYGGYYFIYSTWKGRTIYLEDIYV [I4G]	1.88
GYGIYYFIYSTWKGRTIYLEDIYG [V24G]	2.6
GYKIYYFIYSTWKGRTIYLEDIYV [G3K]	2.62
GYGIYYFIYSTWKGRTRYLEDIYV [I17R]	1.72
GYGIDYFIYSTWKGRTIYLEDIYV [Y5D]	2.62
GYGIYYFIISTWKGRTIYLEDIYV [Y9I]	1.62
GYGIYYFIYSTFKGRTIYLEDIYV [W12F]	2.8
GYGIYYFIYSTWSGRTIYLEDIYV [K13S]	2.39
GYGILYFIYSTWKGRTIYLEDIYV [Y5L]	2.15
GYGIYYFIYSTWPGRTIYLEDIYV [K13P]	1.99
GYGIYYFIYSQWKGRTIYLEDIYV [T11Q]	2.72
GYGIYYFIYSFWKGRTIYLEDIYV [T11F]	2.43
GYGIYYFIYSTWYGRTIYLEDIYV [K13Y]	1.48
GYGIYYPIYSTWKGRTIYLEDIYV [F7P]	3.4
GYGIYYFIYSTWKGRTIYLEDIPV [Y23P]	2.43
GWGIYYFIYSTWKGRTIYLEDIYV [Y2W]	2.38
GYGIYYFIYSTWKGRTIYLEDQYV [I22Q]	1.86
GYGIYYFIRSTWKGRTIYLEDIYV [Y9R]	3.86
GYGIYYFIYSVWKGRTIYLEDIYV [T11V]	3.88
GYGIYYFIYSTWKGRTIYLEDIYI [V24I]	1.48
GYGIYYFAYSTWKGRTIYLEDIYV [I8A]	1.76
GYGIYYFIYSTWKGRTIVLEDIYV [Y18V]	3.04
GYYIYYFIYSTWKGRTIYLEDIYV [G3Y]	2.19
GYGIYYFIYSRWKGRTIYLEDIYV [T11R]	2.28
GYGIYYFIYSTWRGRTIYLEDIYV [K13R]	3.04
RYGIYYFIYSTWKGRTIYLEDIYV [G1R]	2.21
GYGIWYFIYSTWKGRTIYLEDIYV [Y5W]	2.09
GYGIYYFIYSIWKGRTIYLEDIYV [T11I]	2.78
GYGIYYFIYSTWKGRGIYLEDIYV [T16G]	3.31
GYGIYYFIYSTWKGRTIYLEDIYK [V24K]	3.94
GYGIYYFIYSTWKGPTIYLEDIYV [R15P]	2.17
GYGIYYFIYSTWKGRCIYLEDIYV [T16C]	2.83
GIGIYYFIYSTWKGRTIYLEDIYV [Y2I]	3.75
GYGIYYFITSTWKGRTIYLEDIYV [Y9T]	2.78
GYGIYYFIYSTWKGRTIYLEDIMV [Y23M]	2.71
GYGIYYFIYSTWKGRTIYLPDIYV [E20P]	2.91
GYGIYYFIYSAWKGRTIYLEDIYV [T11A]	2.97
GYGIYYFIYSTWKGRTIYLEDIWV [Y23W]	2.35
GYGIYYFIYSTWKGRTIYLEDIYS [V24S]	2.83
GYGIYYFIYSTWKGSTIYLEDIYV [R15S]	2.1
GYGIYYFQYSTWKGRTIYLEDIYV [I8Q]	1.27
GYGIYYFIYNTWKGRTIYLEDIYV [S10N]	2.55
GYSIYYFIYSTWKGRTIYLEDIYV [G3S]	3.29
GYGIYYFIYSTWKGRTIYLEDIHV [Y23H]	3.07
GYGIYYFHYSTWKGRTIYLEDIYV [I8H]	2.93
GYGIYYFIYSTWKGRTAYLEDIYV [I17A]	3.11
GYGIYYFIYSTWKGRTIYLEPIYV [D21P]	2.44
GYGIYYFIYSTWKGRTIYLEKIYV [D21K]	4.17
GYGIYYFIYSTWKGRRIYLEDIYV [T16R]	1.69
GYGIYYFIYSTWKGRWIYLEDIYV [T16W]	2.95
GYGIYYFIYSTWKGRTFYLEDIYV [I17F]	3.52
HYGIYYFIYSTWKGRTIYLEDIYV [G1H]	2.72
GYGIYYFIYSTWKGRTISLEDIYV [Y18S]	2.33
GYGIYYFIYSTWKPRTIYLEDIYV [G14P]	2.33
GYGIYYFIYSTVKGRTIYLEDIYV [W12V]	3.31
GYGITYFIYSTWKGRTIYLEDIYV [Y5T]	2.53
GYGIYYFIYSTWKGRVIYLEDIYV [T16V]	3.24
GYGIYYFIYSTWKGRTIYLEDIYM [V24M]	1.63
GYGIYYFIYSTWKGRTIKLEDIYV [Y18K]	1.88
FYGIYYFIYSTWKGRTIYLEDIYV [G1F]	2.13
GYGIYYFIYSTWKGRTIYLEDEYV [I22E]	2.92
GYGIYYFIYSTWKGETIYLEDIYV [R15E]	3.72
GYGIYYFIYSTWKGRTKYLEDIYV [I17K]	3.66
GYGICYFIYSTWKGRTIYLEDIYV [Y5C]	2.85
GYGIYYFIYSTWKGRTIYLEDHYV [I22H]	2.55
GYGIYYFIYSYWKGRTIYLEDIYV [T11Y]	2.83
GYGIYYFIYSTWKGATIYLEDIYV [R15A]	4.7
GYGIYYFIYSTWKGRTIYLLDIYV [E20L]	2.1
GYGIYYFIYSTWKGRLIYLEDIYV [T16L]	3.32
GQGIYYFIYSTWKGRTIYLEDIYV [Y2Q]	4.95
GYGIYYFIYSTWKGRTIYLEDIFV [Y23F]	2.37
GYGIYYFIYSTWKGRTIYLEDIAV [Y23A]	2.89
GYGIYYFIYSTWKGRTIYLELIYV [D21L]	2.9
GYGIYYFIYSTWKGRTIYLEDIYP [V24P]	2.3
GYGIYYFIYSTWKGRAIYLEDIYV [T16A]	3.27
GYGIYYFIYSTWKSRTIYLEDIYV [G14S]	2.5
GYGIYRFIYSTWKGRTIYLEDIYV [Y6R]	3.12
GYGIYYQIYSTWKGRTIYLEDIYV [F7Q]	5.82
GYGIYYFIYETWKGRTIYLEDIYV [S10E]	3.09
GYGIYYFIYCTWKGRTIYLEDIYV [S10C]	2.53
GYGIYYFIYSTWKGRTIYLEDIYA [V24A]	2.62
GYGIYYFIYMTWKGRTIYLEDIYV [S10M]	3.91
GYGIYYFIYQTWKGRTIYLEDIYV [S10Q]	2.29
GMGIYYFIYSTWKGRTIYLEDIYV [Y2M]	2.92
GYPIYYFIYSTWKGRTIYLEDIYV [G3P]	2.7
